- System: D-type amino acid dehydrogenase derived from N. massiliense (wild type)
- Procedure summary: D-amino acid synthesis activity, wild type enzyme
- Assay type: biochemical, Numidum massiliense
- Experimental conditions: 5 mM 2-oxo acid, 0.1 mM NADPH, 200 mM ammonium chloride, pH 9.5, 50° C.
# D-amino acid synthesis activity (specific activity), Wild type, NADPH per record follows
Write the number in µmol/min/mg without appending the unit.

Compound	Target system	Readout units	Value observed
O=C(O)CC(=O)C(=O)O [2-oxobutanedioic acid]	D-type amino acid dehydrogenase derived from N. massiliense (wild type)	µmol/min/mg	5.2

compound O=C(O)C(=O)Cc1ccccc1 [2-oxo-3-phenylpropanoic acid] , D-amino acid synthesis activity (specific activity), Wild type, NADPH observed: 1.5

Measured D-amino acid synthesis activity (specific activity), Wild type, NADPH, CSCCC(=O)C(=O)O [2-oxo-4-(methylthio)butanoic acid] : 2.0

Notebook: CC(C)CC(=O)C(=O)O [2-oxo-4-methylpentanoic acid] , D-amino acid synthesis activity (specific activity), Wild type, NADPH read as 0.803

What the record says about CCC(C)C(=O)C(=O)O (stereo not shown) [2-oxo-3-methylpentanoic acid] : D-amino acid synthesis activity (specific activity), Wild type, NADPH is 0.18

The recorded D-amino acid synthesis activity (specific activity), Wild type, NADPH for entry CC(=O)C(=O)O [2-oxopropanoic acid] equals 4.7

Given item CC(C)C(=O)C(=O)O [2-oxo-3-methylbutanoic acid] , the value recorded as its D-amino acid synthesis activity (specific activity), Wild type, NADPH is 0.26

D-amino acid synthesis activity (specific activity), Wild type, NADPH measured on CCC(=O)C(=O)O [2-oxobutanoic acid] = 1.4

The reported D-amino acid synthesis activity (specific activity), Wild type, NADPH of the compound O=C(O)CCC(=O)C(=O)O [2-oxoglutaric acid] was 0.11

Noted for CCCCCCC(=O)C(=O)O [2-oxooctanoic acid] : its D-amino acid synthesis activity (specific activity), Wild type, NADPH reads 5.8
